Consider the following compounds and their measured MIC readings.
Tested on: Staphylococcus aureus
Assay: Antibacterial activity against Staphylococcus aureus CRBIP 2121 after 18 hrs by agar dilution method
Type: functional
Conditions: CRBIP 2121, 18 h

compound: C=C1CC[C@H]2C(C)(C)CCC[C@]2(C)[C@H]1C[C@H](O)C1=CC(=O)OC1O (stereo partly drawn)
qual: =
MIC [µM]: 48
--
compound: C=C1CC[C@H]2C(C)(C)CCC[C@]2(C)[C@H]1C[C@@H](O)C1=CC(=O)OC1
qual: >
MIC [µM]: 188
--
compound: C=C1CC[C@H]2C(C)(C)CCC[C@]2(C)[C@H]1C[C@@H](O)C1=CC(=O)OC1O (stereo partly drawn)
qual: =
MIC [µM]: 12

###

Test system: Listeria innocua
Test: Antibacterial activity against Listeria innocua E044 after 18 hrs by agar dilution method
Type: functional
Conditions: E044, 18 h
// classify: if (MIC < 0.7 µM) rule met else rule not met

compound: CN[C@H](CC(C)C)C(=O)N[C@H]1C(=O)N[C@@H](CC(N)=O)C(=O)N[C@H]2C(=O)N[C@H]3C(=O)N[C@H](C(=O)N[C@H](C(=O)O)c4cc(O)cc(O)c4-c4cc3ccc4O)[C@H](O)c3ccc(c(Cl)c3)Oc3cc2cc(c3O[C@@H]2O[C@H](CO)[C@@H](O)[C@H](O)[C@H]2O[C@H]2C[C@](C)(N)[C@H](O)[C@H](C)O2)Oc2ccc(cc2Cl)[C@H]1O
category: rule met
--
compound: C=C1CC[C@H]2C(C)(C)CCC[C@]2(C)[C@H]1C[C@H](O)C1=CCOC1=O
category: rule not met
--
compound: C=C1CC[C@H]2C(C)(C)CCC[C@]2(C)[C@H]1C[C@@H](O)C1=CC(=O)OC1O (stereo partly specified)
category: rule not met
--
compound: C=C(CC(=O)O)C(=O)C[C@H]1C(=C)CC[C@H]2C(C)(C)CCC[C@]12C
category: rule not met
--
compound: C=C1CC[C@H]2C(C)(C)CCC[C@]2(C)[C@H]1C[C@H](O)C1=CC(=O)OC1O (stereo partly specified)
category: rule not met

###

Test system: Bacillus cereus
Test: Antibacterial activity against Bacillus cereus N349 after 18 hrs by agar dilution method
Type: functional
Conditions: N349, 18 h
Consider the following molecules and their measured MIC readings.
valueType: MIC (µM)

molecule: CC1(C)CCC[C@]2(C)[C@@H]1CC[C@]1(CO)O[C@@H](C3=CC(=O)OC3O)C[C@H]12 (some centres undefined)
valueType: MIC
qual: =
result: 46
//
molecule: C=C1CC[C@H]2C(C)(C)CCC[C@]2(C)[C@H]1C[C@@H](O)C1=CC(=O)OC1
valueType: MIC
qual: ≤
result: 188
//
molecule: C=C1CC[C@H]2C(C)(C)CCC[C@]2(C)[C@H]1C[C@@H](O)C1=CC(=O)OC1O (some centres undefined)
valueType: MIC
qual: =
result: 6
//
molecule: C=C(CC(=O)O)C(=O)C[C@H]1C(=C)CC[C@H]2C(C)(C)CCC[C@]12C
valueType: MIC
qual: =
result: 50

###

Consider the following molecules and their measured log10 MIC readings.
Tested on: Staphylococcus aureus
Assay: Antibacterial activity against Staphylococcus aureus CIP 5710 after 18 hrs by agar dilution method
Assay type: functional
Conditions: CIP 5710, 18 h
valueType: log10 MIC (log10 of the value in µM)

molecule: O=C(N[C@H](CO)[C@H](O)c1ccc([N+](=O)[O-])cc1)C(Cl)Cl
log10 MIC: 1.08
//
molecule: CN[C@H](CC(C)C)C(=O)N[C@H]1C(=O)N[C@@H](CC(N)=O)C(=O)N[C@H]2C(=O)N[C@H]3C(=O)N[C@H](C(=O)N[C@H](C(=O)O)c4cc(O)cc(O)c4-c4cc3ccc4O)[C@H](O)c3ccc(c(Cl)c3)Oc3cc2cc(c3O[C@@H]2O[C@H](CO)[C@@H](O)[C@H](O)[C@H]2O[C@H]2C[C@](C)(N)[C@H](O)[C@H](C)O2)Oc2ccc(cc2Cl)[C@H]1O
log10 MIC: -0.22
//
molecule: C=C1CC[C@H]2C(C)(C)CCC[C@]2(C)[C@H]1C[C@H](O)C1=CC(=O)OC1O (stereo partly specified)
log10 MIC: 1.68
//
molecule: C=C1CC[C@H]2C(C)(C)CCC[C@]2(C)[C@H]1C[C@@H](O)C1=CC(=O)OC1O (stereo partly specified)
log10 MIC: 1.38
//
molecule: CC1COc2c(N3CCN(C)CC3)c(F)cc3c(=O)c(C(=O)O)cn1c23 (stereo unspecified)
log10 MIC: -0.15

###

Test system: Enterococcus faecium
Assay: Antibacterial activity against Enterococcus faecium CIP 107387 after 18 hrs by agar dilution method
Assay type: functional
Conditions: CIP 107387, 18 h
Consider the following molecules and their measured MIC readings.
valueType: MIC

molecule: CN[C@H](CC(C)C)C(=O)N[C@H]1C(=O)N[C@@H](CC(N)=O)C(=O)N[C@H]2C(=O)N[C@H]3C(=O)N[C@H](C(=O)N[C@H](C(=O)O)c4cc(O)cc(O)c4-c4cc3ccc4O)[C@H](O)c3ccc(c(Cl)c3)Oc3cc2cc(c3O[C@@H]2O[C@H](CO)[C@@H](O)[C@H](O)[C@H]2O[C@H]2C[C@](C)(N)[C@H](O)[C@H](C)O2)Oc2ccc(cc2Cl)[C@H]1O
studyTarget: Enterococcus faecium
result: > 86 µM
--
molecule: C=C1CC[C@H]2C(C)(C)CCC[C@]2(C)[C@H]1C[C@H](O)C1=CC(=O)OC1O (stereo partly specified)
studyTarget: Enterococcus faecium
result: > 96 µM
--
molecule: C=C1CC[C@H]2C(C)(C)CCC[C@]2(C)[C@H]1C[C@@H](O)C1=CC(=O)OC1
studyTarget: Enterococcus faecium
result: > 188 µM
--
molecule: C=C1CC[C@H]2C(C)(C)CCC[C@]2(C)[C@H]1C[C@H](O)C1=CCOC1=O
studyTarget: Enterococcus faecium
result: > 79 µM
--
molecule: CC1COc2c(N3CCN(C)CC3)c(F)cc3c(=O)c(C(=O)O)cn1c23 (stereo unspecified)
studyTarget: Enterococcus faecium
result: 177 µM
--
molecule: CC1(C)CCC[C@]2(C)[C@@H]1CC[C@]1(CO)O[C@@H](C3=CC(=O)OC3O)C[C@H]12 (stereo partly specified)
studyTarget: Enterococcus faecium
result: > 46 µM

###

Tested on: Staphylococcus aureus
Test: Antibacterial activity against Staphylococcus aureus CRBIP 2121 after 18 hrs by agar dilution method
Assay type: functional
Settings: CRBIP 2121, 18 h
// classify: if (MIC < 100 µM) Fulfilled else Not fulfilled

compound: CC1COc2c(N3CCN(C)CC3)c(F)cc3c(=O)c(C(=O)O)cn1c23 (configuration not stated)
category: Not fulfilled
//
compound: C=C1CC[C@H]2C(C)(C)CCC[C@]2(C)[C@H]1C[C@H](O)C1=CCOC1=O
category: Fulfilled
//
compound: CC1(C)S[C@@H]2[C@H](NC(=O)[C@H](N)c3ccc(O)cc3)C(=O)N2[C@H]1C(=O)O
category: Not fulfilled
//
compound: O=C(N[C@H](CO)[C@H](O)c1ccc([N+](=O)[O-])cc1)C(Cl)Cl
category: Fulfilled
//
compound: CN[C@H](CC(C)C)C(=O)N[C@H]1C(=O)N[C@@H](CC(N)=O)C(=O)N[C@H]2C(=O)N[C@H]3C(=O)N[C@H](C(=O)N[C@H](C(=O)O)c4cc(O)cc(O)c4-c4cc3ccc4O)[C@H](O)c3ccc(c(Cl)c3)Oc3cc2cc(c3O[C@@H]2O[C@H](CO)[C@@H](O)[C@H](O)[C@H]2O[C@H]2C[C@](C)(N)[C@H](O)[C@H](C)O2)Oc2ccc(cc2Cl)[C@H]1O
category: Fulfilled

###

Consider the following compounds and their measured log10 of MIC readings.
Tested on: Staphylococcus haemolyticus
Assay: Antibacterial activity against Staphylococcus haemolyticus CIP 8156 after 18 hrs by agar dilution method
Assay type: functional
Details: CIP 8156, 18 h
valueType: log10 of MIC (log10 of the value in µM)

compound: O=C(N[C@H](CO)[C@H](O)c1ccc([N+](=O)[O-])cc1)C(Cl)Cl
valueType: log10 of MIC
result: 0.78

compound: CC1COc2c(N3CCN(C)CC3)c(F)cc3c(=O)c(C(=O)O)cn1c23 (stereo not given)
valueType: log10 of MIC
result: -0.15

compound: CN[C@H](CC(C)C)C(=O)N[C@H]1C(=O)N[C@@H](CC(N)=O)C(=O)N[C@H]2C(=O)N[C@H]3C(=O)N[C@H](C(=O)N[C@H](C(=O)O)c4cc(O)cc(O)c4-c4cc3ccc4O)[C@H](O)c3ccc(c(Cl)c3)Oc3cc2cc(c3O[C@@H]2O[C@H](CO)[C@@H](O)[C@H](O)[C@H]2O[C@H]2C[C@](C)(N)[C@H](O)[C@H](C)O2)Oc2ccc(cc2Cl)[C@H]1O
valueType: log10 of MIC
result: -0.22

compound: C=C(CC(=O)O)C(=O)C[C@H]1C(=C)CC[C@H]2C(C)(C)CCC[C@]12C
valueType: log10 of MIC
result: 2.20

compound: C=C1CC[C@H]2C(C)(C)CCC[C@]2(C)[C@H]1C[C@@H](O)C1=CC(=O)OC1O (stereo not given in full)
valueType: log10 of MIC
result: 0.78

compound: C=C1CC[C@H]2C(C)(C)CCC[C@]2(C)[C@H]1C[C@H](O)C1=CC(=O)OC1O (stereo not given in full)
valueType: log10 of MIC
result: 1.38
